target.entity: T1, Human CXCR2 (human, UniProt P25025 1-360)
T1 sequence: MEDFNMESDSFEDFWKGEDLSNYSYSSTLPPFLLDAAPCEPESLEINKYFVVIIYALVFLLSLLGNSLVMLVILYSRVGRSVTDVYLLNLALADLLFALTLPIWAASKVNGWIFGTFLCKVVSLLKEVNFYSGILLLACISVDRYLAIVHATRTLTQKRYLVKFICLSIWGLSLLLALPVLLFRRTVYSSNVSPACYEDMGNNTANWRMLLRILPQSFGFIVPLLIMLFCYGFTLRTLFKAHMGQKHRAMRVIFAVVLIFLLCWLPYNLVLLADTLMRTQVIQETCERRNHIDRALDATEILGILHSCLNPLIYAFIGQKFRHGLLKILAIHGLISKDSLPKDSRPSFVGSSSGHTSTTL
assay.overview: cell-based or functional assay
Outcome label depends on [35S]GTPγS IC50 (IL-8) relative to 1 nM: at/above gives label 1, below gives label 0.

{"columns": ["binder", "group"],
 "data": [
  ["CXCR20014 (bispecific antibody, Biparatopic: two VHH joined by a GlySer linker; also called 97A9-35GS-2B2; 97A9-2B2; not shown: C-terminal c-myc tag and His6 tag coded by pAX100) EVQLVESGGGLVQPGGSLRLSCVASGSIVRINTMGWYRQTPGKQRELVADITSGGNINYIDAVKGRFTISRDNTKNTVYLQMNSLKPEDTAVYYCNAEIVVLVGVWTQRARTGNYWGQGTQVTVSSGGGGSGGGGSGGGGSGGGGSGGGGSGGGGSGGGGSEVQLVESGGELVQPGGSLRLSCAASGSILTINAMGWYRQAPGKQRELVVRRTRGGSTTYQDSVKGRFTISADIAKKTMYLQMNSLKPEDTAVYYCMLDDRGGVYWGQGTQVTVSS", "label 1"],
  ["CXCR20031 (bispecific antibody, Biparatopic: two VHH joined by a GlySer linker; also called 2B2-35GS-163E3; not shown: C-terminal c-myc tag and His6 tag coded by pAX100) EVQLVESGGELVQPGGSLRLSCAASGSILTINAMGWYRQAPGKQRELVVRRTRGGSTTYQDSVKGRFTISADIAKKTMYLQMNSLKPEDTAVYYCMLDDRGGVYWGQGTQVTVSSGGGGSGGGGSGGGGSGGGGSGGGGSGGGGSGGGGSEVQLVESGGGLVQPGGSLRLSCVASGRIFSSNAMGWFRQAPGKEREFVAAITWRSGGSAYYADSAKGRFTISRDNAKNTVYLQMNSLKPEDTAVYYCAAGGSSWLSFPPDYWGQGTQVTVSS", "label 0"],
  ["CXCR20020 (bispecific antibody, Biparatopic: two VHH joined by a GlySer linker; also called 127D1-35GS-163D2; 127D1-163D2; not shown: C-terminal c-myc tag and His6 tag coded by pAX100) EVQLVESGGGLVQAGESLRLSCAASGSTFDFKVMGWYRQPPGKQREGVAAIRLSGNMHYAESVKGRFTISKANAKNTVYLQMNSLRPEDTAVYYCKVNIRGQDYWGQGTQVTVSSGGGGSGGGGSGGGGSGGGGSGGGGSGGGGSGGGGSEVQLVESGGGLVQAGGSLRLSCAASGRTFSDYAMGWFRQAPGKEREFVAAITWNGGRVFYTASVKGRFTISRDNAKNTMYLQMNSLKPEDTAVYYCAADKDRRTDYLGHPVAYWGQGTQVTVSS", "label 0"],
  ["CXCR20021 (bispecific antibody, Biparatopic: two VHH joined by a GlySer linker; also called 127D1-35GS-163E3; 127D1-163E3; not shown: C-terminal c-myc tag and His6 tag coded by pAX100) EVQLVESGGGLVQAGESLRLSCAASGSTFDFKVMGWYRQPPGKQREGVAAIRLSGNMHYAESVKGRFTISKANAKNTVYLQMNSLRPEDTAVYYCKVNIRGQDYWGQGTQVTVSSGGGGSGGGGSGGGGSGGGGSGGGGSGGGGSGGGGSEVQLVESGGGLVQPGGSLRLSCVASGRIFSSNAMGWFRQAPGKEREFVAAITWRSGGSAYYADSAKGRFTISRDNAKNTVYLQMNSLKPEDTAVYYCAAGGSSWLSFPPDYWGQGTQVTVSS", "label 0"],
  ["CXCR20030 (other, Biparatopic: two VHH joined by a GlySer linker; also called 163D2-35GS-54B12; 163D2-54B12; not shown: C-terminal c-myc tag and His6 tag coded by pAX100) EVQLVESGGGLVQAGGSLRLSCAASGRTFSDYAMGWFRQAPGKEREFVAAITWNGGRVFYTASVKGRFTISRDNAKNTMYLQMNSLKPEDTAVYYCAADKDRRTDYLGHPVAYWGQGTQVTVSSGGGGSGGGGSGGGGSGGGGSGGGGSGGGGSGGGGSEVQLVESGGGLVQAGGSLTLSCAVSGSTFRINTMGWYRRAPGKQRELVAARDRGGYINYVDSVKGRFTVSRDNAKPTMYLQMNSLKPEDTAVYYCHAGTQDRTGRNFDRWGQGTQVTVSS", "label 1"]
]}
